# Tested on: DU 145 prostate cancer cell line
# ASSAY SUMMARY: Cytotoxicity, SRB assay, DU 145
# Assay type: cell-based, human
# CONDITIONS USED: Table 2A, Example 1; read-out: IC50 DU145
pIC50: −log10 of the molar value.

- COMPOUND: "O=c1[nH]cc(F)c(=O)[nH]1 [Compound 5-FU, reference compound]"
  pIC50: 5.35

----------
# System: TCCSUP bladder cancer cell line
# ASSAY SUMMARY: Cytotoxicity, SRB assay, TCCSUP
# Format: cell-based, human
# CONDITIONS USED: Homo sapiens, TCC-SUP; Table 2B, Example 1; read-out: IC50 TCCSUP
# Experimental: The SRB Assay was used to determine cell number during cytotoxocity experiments. The following protocol was used: • 1. […] Experimental cultures were cultured in 96-well microtiter plates (200 uL growth medium per well; 1,000-200,000 cells per well). • 3. Cultures were fixed with 50 uL 50% TCA (4° C.). […] Absorbance was read at 540 nm. • * quickly performing rinsing process is to prevent desorption of protein-bound SRB • ** completely remove residual wash solution by sharply flicking plates over sink. […]
pIC50: −log10 of the molar value.
READOUT LABEL: pIC50

- MOLECULE: "C[C@@](O)(CBr)C(=O)Nc1ccc([N+](=O)[O-])c(C(F)(F)F)c1 [S-NTBA]"
  TEST VALUE: 5.62

----------
# Test system: TSU cells
# ASSAY SUMMARY: Induction of apoptosis, TSU
# Type: cell-based, human

- MOLECULE: "C[C@](O)(COc1ccc(N=C=S)cc1)C(=O)Nc1ccc([N+](=O)[O-])c(C(F)(F)F)c1 [Compound V]"
  Enrichment factor TSU: 1.167
- MOLECULE: "C[C@](O)(COc1ccc(NC(=O)CBr)cc1)C(=O)Nc1ccc([N+](=O)[O-])c(C(F)(F)F)c1 [DJ 1-29]"
  Enrichment factor TSU: 1.008
- MOLECULE: "C[C@](O)(COc1ccc(NC(=O)CCl)cc1)C(=O)Nc1ccc([N+](=O)[O-])c(C(F)(F)F)c1 [DJ 1-31]"
  Enrichment factor TSU: 0.848
- MOLECULE: "C[C@@](O)(CBr)C(=O)Nc1ccc([N+](=O)[O-])c(C(F)(F)F)c1 [S-NTBA]"
  Enrichment factor TSU: 0.705

----------
# System: PPC-1 cells
# ASSAY SUMMARY: Induction of apoptosis, PPC-1
# Assay type: cell-based, human
READOUT LABEL: Enrichment factor PPC-1

- COMPOUND: "C[C@](O)(COc1ccc(NC(=O)CBr)cc1)C(=O)Nc1ccc([N+](=O)[O-])c(C(F)(F)F)c1 [DJ 1-29]"
  TEST VALUE: 1.146
- COMPOUND: "C[C@](O)(COc1ccc(N=C=S)cc1)C(=O)Nc1ccc([N+](=O)[O-])c(C(F)(F)F)c1 [Compound V]"
  TEST VALUE: 1.749
- COMPOUND: "C[C@](O)(COc1ccc(NC(=O)CCl)cc1)C(=O)Nc1ccc([N+](=O)[O-])c(C(F)(F)F)c1 [DJ 1-31]"
  TEST VALUE: 1.312
- COMPOUND: "C[C@@](O)(CBr)C(=O)Nc1ccc([N+](=O)[O-])c(C(F)(F)F)c1 [S-NTBA]"
  TEST VALUE: 0.697
